What follows is literature data on pIC50 for Somatostatin receptor type 2 (Homo sapiens, UniProt P30874).
pIC50: −log10 of the molar value.

Examples from the recorded data:
molecule	pIC50
CC(O)[C@@H]1NC(=O)[C@H](CCCCN)NC(=O)[C@H](Cc2c[nH]c3ccccc23)NC(=O)[C@H](Cc2ccc(N)cc2)NC(=O)C(Cc2ccccc2)NC(=O)C(NC(N)=O)CSSC[C@@H](C(=O)O)NC(=O)[C@H](Cc2ccccc2)NC1=O (single isomer, unassigned)	< 6.00
C[C@@H](O)[C@@H]1NC(=O)[C@H](CCCCN)NC(=O)[C@@H](Cc2c[nH]c3ccccc23)NC(=O)[C@H](Cc2ccccc2)NC(=O)[C@H](Cc2ccccc2)NC(=O)[C@@H](NC(N)=O)CSSC[C@@H](C(=O)O)NC(=O)[C@H](Cc2ccc(O)cc2)NC1=O (stereo in doubt)	7.28
NCCCCCN1Cc2[nH]c3ccccc3c2C[C@@H](NC(=O)Cc2ccccc2)C1=O	< 6.00

Tell me the measured pIC50 of `CC(C)NCc1ccc(C[C@@H]2NC(=O)[C@@H](Cc3ccc4ccccc4c3)NC(=O)[C@H](Cc3ccccc3)NC(=O)[C@H](Cc3ccccc3)NC(=O)[C@H](CCCCN)NC(=O)[C@@H](NC(=O)[C@@H](N)Cc3ccc(O)cc3)CSSC[C@@H](C(=O)O)NC(=O)[C@H](CO)NC(=O)[C@H]([C@@H](C)O)NC(=O)[C@H](Cc3ccccc3)NC(=O)[C@H]([C@@H](C)O)NC2=O)cc1` , please.
< 6.00

---

What follows is literature data on IC50 for Somatostatin receptor type 2 (Homo sapiens, UniProt P30874).

Tell me the measured IC50 of `NCCCC[C@@H](C(=O)NCc1ccccc1)N1Cc2[nH]c3ccccc3c2C[C@@H](NC(=O)CC(c2ccccc2)c2ccccc2)C1=O` , please.
103 nM

Tell me the measured IC50 of `CC(C)NCc1ccc(C[C@@H]2NC(=O)[C@@H](N(C)C(=O)c3ccc4ccccc4c3)NC(=O)[C@H](Cc3ccccc3)NC(=O)[C@@H](N)CSSC[C@@H](C(=O)N[C@H](C(N)=O)[C@@H](C)O)NC(=O)[C@H](Cc3ccccc3)NC2=O)cc1` , please.
> 1000 nM

Tell me the measured IC50 of `C[C@@H](O)[C@@H]1NC(=O)[C@H](Cc2ccccc2)NC(=O)[C@H]([C@@H](C)O)NC(=O)[C@H](CCCCN)NC(=O)[C@@H](Cc2c[nH]c3ccccc23)NC(=O)[C@H](Cc2ccccc2)NC(=O)[C@H](Cc2ccccc2)NC(=O)[C@@H](N)CSSC[C@@H](C(=O)O)NC1=O` , please.
1.9 nM

Tell me the measured IC50 of `C[C@@H](O)[C@@H]1NC(=O)[C@H](N(C)C(=O)CCN)NC(=O)[C@@H](Cc2c[nH]c3ccccc23)NC(=O)[C@H](Cc2ccccc2)NC(=O)[C@H](Cc2ccccc2)NC(=O)[C@@H](N)CSSC[C@@H](C(=O)O)NC(=O)[C@H](Cc2ccccc2)NC1=O` , please.
> 1000 nM

---

What follows is literature data on pIC50 for Somatostatin receptor type 2 (Homo sapiens, UniProt P30874).
pIC50: −log10 of the molar value.
measured.property: pIC50

Examples from the recorded data:
compound	pIC50
C[C@@H](O)[C@H](NC(=O)[C@@H]1CSSC[C@H](NC(=O)[C@H](N)Cc2ccccc2)C(=O)N[C@@H](Cc2ccccc2)C(=O)N[C@H](Cc2c[nH]c3ccccc23)C(=O)N[C@@H](CCCCN)C(=O)N[C@@H]([C@@H](C)O)C(=O)N1)C(N)=O	8.66
C[C@@H](O)[C@@H]1NC(=O)[C@H](CCCCN)NC(=O)[C@@H](Cc2c[nH]c3ccccc23)NC(=O)[C@H](Cc2ccccc2)NC(=O)[C@H](Cc2ccccc2)NC(=O)[C@@H](N)CSSC[C@@H](C(=O)O)NC(=O)[C@H](Cc2ccc(O)cc2)NC1=O (stereo in doubt)	7.81
C[C@@H](O)[C@@H]1NC(=O)[C@H](CCCCN)NC(=O)[C@H]([C@@H](C)c2ccc3ccccc3c2)NC(=O)[C@H](Cc2ccc(O)cc2)NC(=O)[C@H](Cc2ccccc2)NC(=O)[C@H](N)CSSC[C@@H](C(=O)O)NC(=O)[C@H](Cc2ccccc2)NC1=O	6.47

[1] C[C@H](c1ccc2ccccc2c1)[C@@H]1NC(=O)[C@H](Cc2ccc(O)cc2)NC(=O)[C@H](Cc2ccccc2)NC(=O)[C@@H](N)CSSC[C@@H](C(=O)O)NC(=O)[C@H](Cc2ccccc2)NC(=O)[C@H]([C@@H](C)O)NC(=O)[C@H](CCCCN)NC1=O
[2] C[C@@H](O)[C@@H]1NC(=O)[C@H](CCCCN)NC(=O)[C@H]([C@@H](C)c2ccc3ccccc3c2)NC(=O)[C@H](Cc2ccc(O)cc2)NC(=O)[C@H](Cc2ccccc2)NC(=O)[C@@H](N)CSSC[C@@H](C(=O)O)NC(=O)[C@H](Cc2ccccc2)NC1=O
[3] CC(C)[C@@H]1NC(=O)[C@H](CCCCN)NC(=O)[C@@H](Cc2c[nH]c3ccccc23)N(C)C(=O)[C@H](Cc2ccc(O)cc2)NC(=O)[C@H](C)N(C)C(=O)[C@H](Cc2ccccc2)NC1=O
# desc sort on pIC50 across 3 compounds Give the order by naming the labels one after another as requested.
3, 1, 2
